# Assay summary: yeast display, Sf9 membrane polyspecificity reagent, FACS + sequencing; frameworks hold sequencing errors
Reported endpoint: polyreactivity (PSR sort gate)

sequence=QVQLVESGGGLVQAGGSLRLSCAASGSTFKYYAMGWYRQAPGKERELVASITRTGSSTYYADSVKGRFTISRDNAKNTVYLQMNSRKPEDTAVYYCNTGPHSVWWHYGYDYWGQGTQVTVSS value="high polyreactivity"
sequence=QVQLVESGGGLVQAGGSLRLSCAASGFTFYYYTMGRYRQAPGKEIELLADISSGDRTYYADSVKGRFTISRDNAKNTVYLQMNSLKPEDTAVYYCAAPAKYYTRFGHYNLNQDYDSWGQGTQVTVSS value="low polyreactivity"
sequence=QVQLVESGGGLVQAGGSLRLSCAASGSTFYWYAMGWYIQAPGKERELGAAIRWSGDRTYYADSVKGLFTISRDNAKNTVYLQMNSLKPEDTAVYYCAAGKGRPVGGRAYYYWGQGTQVTVSS value="high polyreactivity"
sequence=QVQLEESGGGLVQAGGSLRLSCAASGFTFERNAMGWYRQAPGKERELVAAISWSGGSTYYADSVKGRFTISRDNAKNTVYLQMNSLKPEDTAVYYCAAYQWGYWYGYRMDYWGQGTQVTVSS value="high polyreactivity"
sequence=QVQLVESGGGLVQAGGSLRLRCAASGFIFCSYAMGWYRQAPGKERELVAAINTSGDSTYYADSVKGRFTISRDNAKNTVYLQINSLKPEDTAVYYCAAESSPDGYFLSDYWGQGTQVTVSS value="low polyreactivity"

---

# Assay summary: yeast display, Sf9 membrane polyspecificity reagent, FACS + sequencing; frameworks hold sequencing errors
Reported endpoint: polyreactivity (PSR sort gate)

sequence=QVQLVESGGGLVQAGGSLRLSCAASGRIFYVYAMGWYRQAPGKERELVAAITQSGGRTYYADSVKGRFTISRDNAKNTVYLQMNSLKPEDTAVYYCAATWLGSRNLVHITLYYWGQGTQVTVSS reported_endpoint="polyreactivity (PSR sort gate)" value="low polyreactivity"
sequence=QVQLVESGGGLVQAGGSLRLSCAASGRTFYYYAMGWNRQAPGTERELVAAITTDGGNTYYADSVKGRFTISRDTAKNTVYLQMNSLKPEDTAVYYCATDGYEYTDYGSSGYDYWGQGTQVTVSS reported_endpoint="polyreactivity (PSR sort gate)" value="low polyreactivity"
sequence=QDQLVESGGGLVQAGGSLRLRCAASGFTFGCYAMGWYRQAPGKERELVASITSGGSTNYADSVKGRFTISRDNAKNTVYLQMNTLKPEDTAVYYCAKDLLGFDKVQYKIEDYWGQGTQVTVSS reported_endpoint="polyreactivity (PSR sort gate)" value="low polyreactivity"
sequence=QVQLVESGGGLVQAGGSLRLSCAASGSTSYDNSMGWNRKAPGKERELVAAITSDGGSTYYADSVKGRFTISRDKAKNTLYLQMNSLKPEDTAVYYCSADVVHQEWVYVYGGRDDYWGQGTQVTVSS reported_endpoint="polyreactivity (PSR sort gate)" value="low polyreactivity"
sequence=QVQLVESGGGLVQAGGSLRLSCAASGRTFVVYAMGWYRQAPGKERELVAAISRGGSRTYYADSVKGRFTISRDNAKNTVYLQMNSLKPEDTAVYYCAKVIPAYPDSDYNYWGQGTQVTVSS reported_endpoint="polyreactivity (PSR sort gate)" value="high polyreactivity"
sequence=QVQLVESGGGLVQAGGSLRLSCAASGLIFRYNTMGWYRQAPGKERELVAAITSSGGSTYYADSVKGRFTISRDNAKNTVYLQMNSLKPEDTAVYYCAKRSFYFSDYDYWGQGTQVTVSS reported_endpoint="polyreactivity (PSR sort gate)" value="high polyreactivity"
sequence=QVQLVESGGGLVQAGGSLRLSCAASRPIFYANAKGGYRQAPGKEREFVATIRRGTSTNYADSVKGRFTISRDNAKNTVYLQMNSLKPEDTAVYYCAVVSNGRRERYYYWGQGTQVTVSS reported_endpoint="polyreactivity (PSR sort gate)" value="low polyreactivity"
sequence=QVQLVESGGGLVQAGGSLRLSCAASGRTFGPYAMGWYRQAPGKEREFVAAISYSGGSTYYADSVKGRFTISRDNAKNTVFLQMNSLKPEDTAVYYCAVDIDSNSGTRDYWGQGTQVTVSS reported_endpoint="polyreactivity (PSR sort gate)" value="low polyreactivity"
sequence=QVQLVESGGGLVQAGGSLRLSCAASGRIFSEYAMGGDRQAPGKERELVATITSGDSTIYADSVKGRFTISRDNAKNTVYVQMNSLKPDDTAVYYCNPDRFADYDYWGHGTQVTVSS reported_endpoint="polyreactivity (PSR sort gate)" value="low polyreactivity"
sequence=QDQLVESGGGLVQAGGSLRLSCAASGITFNRYAMGWYRQAPGKERELVAAISRTGGSTYYADSVKARFTISRDNAKNTVYLQMNSLKPEDTAVYYCASRYTKGMYYWGQVTQVTVSS reported_endpoint="polyreactivity (PSR sort gate)" value="high polyreactivity"
sequence=QVQLVESGGGLVPAGGSLRLSCAASGFTFRRYDMGWYRHAPGKERELVAAISWSSDGTYYADSVKGRFTISRDNAKNTVYLQINSLKPEDTAVYYCAARWGTKSGRYDYWGQGTQVTVSS reported_endpoint="polyreactivity (PSR sort gate)" value="high polyreactivity"

---

# Assay summary: yeast display, Sf9 membrane polyspecificity reagent, FACS + sequencing; frameworks hold sequencing errors
Reported endpoint: polyreactivity (PSR sort gate)

sequence=QVQLVESGGGLVQAGGSLRLSCAASGRIFRPYAMGWYRQAPGKERELVASMSWRGSSTYYADSVKGRFTISRDNAQNTVYLQMNSLKPEDTAVYYCAARRYPTSGYGYWGQGTQVTVSS value="high polyreactivity"
sequence=QVQLVESGGGLVQAGGSLRLSCAASGRIFSIYTMGWSRQAPGKERELVAAISASDGSTYYADSVKGRFTISRDNAKNTVYLQMNSLKPEDTAVYYCAIDTYPQKVTYGSFAYDYWGEGTQVTVSS value="low polyreactivity"
sequence=QVQLLESGGGLVQAGGSLRLSCAASGRIYLGYALGWYRQAPGKERELVAAITSSGGYTYYADSVKGRFTISLDNAKNTVYLQMNSLKPEDTAVYYCNVYRFGWWYTNDYWGQGTQVTVSS value="high polyreactivity"
sequence=QVQLVETGGGLVQAGGSLRLSCAASGITFWYYAMGWYIQAPGKERELVAAITSGGSTYYADSVKGRFTISRDNAKNTVYLQMNSLKPEDTAVYYCAKDSVWGAKNLTSYKYYYWGQGTQVTVSS value="low polyreactivity"
sequence=QVQLVESGGGLVQAGGSLRLSCAASGRILSYYAMGWYRQAPGKERELVAVIRRGASTYADSVKGRFTISRDNAKNTVYLQMNSLKPEDTAVYYCNAERVVGLSATKYGYWGQGTQVTVSS value="low polyreactivity"

---

# Assay summary: yeast display, Sf9 membrane polyspecificity reagent, FACS + sequencing; frameworks hold sequencing errors
Reported endpoint: polyreactivity (PSR sort gate)

sequence=QVQLLESGGGLVQAGGRLRLSCAASRNTFRQTAMGWNRQAPGKETELVASITSGGSTYYADSVQGRFTISRDNAKNTVYLQMNSLNPEDTAVYYCASRYIRSASWFYRIYDYWGQGTQVTVSS value="high polyreactivity"
sequence=QVQLVESGGGLVQAGGSLRLSCAASGRTFQDYAMGWYRQAPGKERELVAVINSGGSTYYADSVKGRFTISRDNAKNTVYLQMNSLKPEDTAVYYCAKGYWFYPWYHGYYWGQGTQVTVSS value="high polyreactivity"
sequence=QVQLVESGGGLVKAGGSLRLSCAASGSTFRRYAMGWYRLAPGKERELVAAITIGGSTYYADSVKGRFTISRDNAKNTVKLKMNSLKPEDTAVYSCNAGKTYLGDYWGQGTQVTVSS value="high polyreactivity"

---

# Assay summary: yeast display, Sf9 membrane polyspecificity reagent, FACS + sequencing; frameworks hold sequencing errors
Reported endpoint: polyreactivity (PSR sort gate)

sequence=QVQLEESGGGLVQAGGSHRLSCAASGRTFGAYAMGWYLQAPGKEREVVAAITYRGASTYYADSVKGRFTISRDNAMYTVYLQMNSLITEDTAVYSCAAEGSIKYFVGYNWGYNYWGQGSQVTVSS value="low polyreactivity"
sequence=QVQLVESGGGLVQAGGSLRLSCAASGSIFSLYAMGWYRPAPGKERELVAAISDGTGTNYADSVKGRFTISRDNAKNTVYLQMNSLKPVDTAVYYCATETYWYLPYYGDVEGNYWGQGTQVTVSS value="low polyreactivity"
sequence=QVQLVESGGGLVQAGGSLRLSCAASGFTFDYNAMGWYRQAPGKEREFVAAISSNGGSTYYADSVKGRFTISRDNAKNTVYFQMNSLKPEDTAVYYCAARYRSFVYWYGYWGQGTQVTVSS value="high polyreactivity"
sequence=QDQLVESWGGLVQAGGSLRLSCAASGFTFRNNAMGWYRHAPWKERDLVASITARGGSTYYADTVKGRFTISRDNAINTVYVQLNILKTEDTAVYYSATDDYTWRRHPWYAGYDSWGQGTQVTVSS value="low polyreactivity"
sequence=QVQLVESGGGLVQAGGSLRLSCAASGRIFAGYAMGWYRQAPGKERELVAAITTGGSTHYADSVKGRFTISRDNAKNTVYLQMNSLKPEDTAVYYCNAKVEFWESWGWLLDDDYWGQGTQVTVSS value="low polyreactivity"
sequence=QVQLVESGGGLVQAGGSLRLSCAASGRIFVVYAMGWYRQAPGKERELVAAITSSGNTNYADSVKGRFTISRDNAKNTVYLQMNSLKPEDTAVYYCAATRDYSSDYWGQGTEVTVSS value="low polyreactivity"
sequence=QGQLVESGGGLVQAGVTLRLSCAASGITFPWYAMGWYRQAPGKERELVASITSGGSTNYADSVKGRFTISRDNSKNTVYLQMNSLKPEDTAVSYCARDWYSPVYWAAGYDAWGSGYDYWGQGTQVTVSS value="high polyreactivity"
sequence=QVQLVESRGGLVQAGGSLRLSFPASGSTFYKYAKGWYRQAPGKERELVASISRRAGSTYYADSVKGRFTISRDNAKNTVDVQMTSLKPEDTAVYYCAAVGRYDRVFDYDYWGQGTQVTVSS value="high polyreactivity"
sequence=QVQLVESGGGLVQAGGSLRLSCAASGCIFVRYAMGWYRQAPGKERELVAAISRSGGSTSYADSVKGRFTISRDNAKNTVYLQMNSLKPEDTAVYYCAVVRGGRGYPGYDYWGQGTQVTVSS value="low polyreactivity"
sequence=QVQLVDSGGALVQAGGSLRLICAASGSTFIINAMGWYRQAPGKDRELVAAISGRGTRTYYADSVKGRFTISRDNAKNSVYLQMKSLKPEDTAVYYCNAVRSLSFTTEHDYWGQGTQVTVSS value="high polyreactivity"
sequence=QVQLVESGGGLVQAGGSLRLSCAASGRIFDTNAMGWYRQAPGKERELVAAITYSGGSTYYADSVKGRFTISRDNAKNTVYLQMNSLKPEDTAVYYCAAGPYDPRYDYWGQGTQVTVSS value="high polyreactivity"
